biological target: RNA-directed RNA polymerase (Hepacivirus hominis); assay: Inhibition HCV NS5B-mediated RNA synthesis
Sequence (O39930 whole entry): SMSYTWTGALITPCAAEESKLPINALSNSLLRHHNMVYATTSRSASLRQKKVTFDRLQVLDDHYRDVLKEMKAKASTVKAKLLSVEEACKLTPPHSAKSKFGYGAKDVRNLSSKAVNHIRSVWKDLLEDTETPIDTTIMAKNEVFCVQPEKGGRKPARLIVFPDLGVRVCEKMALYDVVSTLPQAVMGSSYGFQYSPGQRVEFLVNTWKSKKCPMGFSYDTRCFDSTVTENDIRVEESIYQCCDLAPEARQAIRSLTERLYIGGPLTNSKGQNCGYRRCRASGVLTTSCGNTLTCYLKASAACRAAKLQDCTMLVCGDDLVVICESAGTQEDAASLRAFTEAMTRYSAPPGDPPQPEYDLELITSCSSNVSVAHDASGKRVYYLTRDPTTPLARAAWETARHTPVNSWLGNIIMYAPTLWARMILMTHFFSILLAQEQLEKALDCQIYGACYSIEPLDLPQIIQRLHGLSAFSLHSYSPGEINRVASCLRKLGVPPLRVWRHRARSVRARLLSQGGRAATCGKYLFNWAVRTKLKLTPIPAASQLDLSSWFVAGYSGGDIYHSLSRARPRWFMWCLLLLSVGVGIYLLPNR
Recorded IC50 values for a group of compounds are listed next.
Unit nM implied. Number only.

Example cases with answers are listed next.
structure: C[C@@]1(O)[C@H](O)[C@@H](CO)O[C@H]1n1cnc2c(N)nc(N)nc21
target-of-assay: RNA-directed RNA polymerase (Hepacivirus hominis)
unit-label: nM
value-observed: 2600
--
structure: C[C@@]1(O)[C@H](O)[C@@H](CO)O[C@H]1n1cnc2c(N)ncnc21
target-of-assay: RNA-directed RNA polymerase (Hepacivirus hominis)
unit-label: nM
value-observed: 1900

// next entry
Short answer on RNA-directed RNA polymerase (Hepacivirus hominis) for Nc1nc2c(ncn2[C@@H]2O[C@H](CO)C[C@H]2O)c(=O)[nH]1 , IC50: 600
